Values were extracted from PubChem BioAssay AID1645865.

Molecular target: Ubiquitin carboxyl-terminal hydrolase 30 (Homo sapiens) (UniProt Q70CQ3)
Sequence (Q70CQ3 whole entry, looked up): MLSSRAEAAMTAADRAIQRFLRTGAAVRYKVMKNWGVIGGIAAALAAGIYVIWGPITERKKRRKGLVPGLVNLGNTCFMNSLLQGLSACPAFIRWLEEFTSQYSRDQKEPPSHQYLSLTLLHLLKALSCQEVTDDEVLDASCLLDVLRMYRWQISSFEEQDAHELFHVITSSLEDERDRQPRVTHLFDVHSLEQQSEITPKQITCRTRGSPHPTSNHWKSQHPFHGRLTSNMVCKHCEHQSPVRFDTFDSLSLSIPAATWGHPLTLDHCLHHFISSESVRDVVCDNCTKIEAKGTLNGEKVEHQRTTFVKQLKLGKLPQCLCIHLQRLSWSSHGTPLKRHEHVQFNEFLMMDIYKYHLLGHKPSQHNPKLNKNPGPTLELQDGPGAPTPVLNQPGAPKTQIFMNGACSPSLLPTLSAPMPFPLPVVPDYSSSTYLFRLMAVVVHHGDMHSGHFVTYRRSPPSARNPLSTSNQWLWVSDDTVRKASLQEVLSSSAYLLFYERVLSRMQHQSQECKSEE
Experiment: inhibitors of ubiquitin-specific protease 30 deubiquitylating enzyme, concentration dependence, in vitro biochemical, validation of primary hits (AID 1645865)
Conditions: purified USP30, Ub-rhodamine cleavage, fluorescence, 2 h
The source made the active and inactive calls.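 The calls were made as follows: active = maximal inhibition of the USP30 enzyme reaching 30% or more across the dose series; inactive = the rest.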
Outcome codes: active, inactive

compound	targetOrSystem	groupLabel
CCc1ccc(NC(=O)COc2cccc(-n3cnnn3)c2)cc1	Ubiquitin carboxyl-terminal hydrolase 30 (Homo sapiens) (UniProt Q70CQ3)	active
CCC(=O)Nc1ccc(-c2nc(Cn3cc(C)cn3)c(C)o2)cc1	Ubiquitin carboxyl-terminal hydrolase 30 (Homo sapiens) (UniProt Q70CQ3)	inactive
CCCC(=O)N1CCC2(CC1)Nc1ccccc1NC2=O	Ubiquitin carboxyl-terminal hydrolase 30 (Homo sapiens) (UniProt Q70CQ3)	inactive
Fc1ccc(Cc2nc(-c3ccc4nncn4c3)no2)cc1	Ubiquitin carboxyl-terminal hydrolase 30 (Homo sapiens) (UniProt Q70CQ3)	inactive
COc1ccccc1/C=C/C(=O)Nc1nc2n(n1)C(c1ccc(Cl)cc1)CC(=O)N2 (stereo not given)	Ubiquitin carboxyl-terminal hydrolase 30 (Homo sapiens) (UniProt Q70CQ3)	inactive
